Reference source: patent US20040223983A1

Assay: Lipophilicity (log P)
Assay type: physicochemical
quantityName: logP

- CN(CCCCCCC(F)(F)C(F)(F)C(F)(F)C(F)(F)F)CCCCC[C@@H]1Cc2cc(O)ccc2[C@@H]2[C@@H]1[C@@H]1CC[C@H](O)[C@@]1(C)C[C@@H]2F: 5.9
